- Assayed System: JAK1 JH2 pseudokinase (human)
- Protocol Description: KINOMEscan competition binding
- Assay Conditions: compound 10.0 µM
Measured kinase still bound, per cent of control, listed per entry.
Answer with a number only, understood to be in %.

• COc1cc2ncnc(Nc3cccc(Cl)c3)c2cc1OC = 38
• CNC(=O)Nc1ccc(-c2nc(N3CC4CCC(C3)O4)c3cnn(C4CCC5(CC4)OCCO5)c3n2)cc1 = 83
• CCc1nc(-c2cccc(C)c2)c(-c2ccnc(NC(=O)c3ccccc3)c2)s1 = 70
• CCN(CCO)CCCOc1ccc2c(Nc3cc(CC(=O)Nc4cccc(F)c4)[nH]n3)ncnc2c1 = 100
• CCOc1cc(N2CCC(O)CC2)ccc1Nc1ncc2c(n1)N(C)c1ccccc1C(=O)N2C = 100

Record N#Cc1cc(-c2ccnc(Nc3ccc(-n4cnc(-c5cccnc5)n4)cc3)n2)cc(N2CCOCC2)c1 , field kinase still bound, per cent of control: 0.95

Summary for this molecule, COc1cc2c(Nc3ccc(NC(=O)c4ccccc4)cc3)ncnc2cc1OCCCN1CCOCC1 : kinase still bound, per cent of control is 32

Short answer for N#C/C(=C1/Nc2ccccc2S1)c1ccnc(NCCc2cccnc2)n1 : kinase still bound, per cent of control was 2.6

Short answer for Cc1cn(-c2cc(C(=O)Nc3ccc(C)c(NC(=O)c4ccno4)c3)cc(C(F)(F)F)c2)cn1 : kinase still bound, per cent of control was 100
